- System: HCC-2998 colon
- Test: NCI tumour cell line growth inhibition, 48 h
Recorded endpoint: TGI

Input: Requested read-out TGI, target or system HCC-2998 colon, entry COc1cccc(S(=O)(=O)NC2=NCCN2C(=S)SN2CCn3c2nsc3=S)c1
Output: > 100 µM

Input: Follow-up entry: O=S(Cc1ccccc1)c1ccccc1Cn1cccc1 (stereo not given)
Output: > 100 µM

Input: Follow-up entry: CCCCCSc1ccc2nc(NC(=O)OCC)sc2c1
Output: > 100 µM

Input: Follow-up entry: Cc1ccc(-c2cc(C(=O)Nc3ccc(S(=O)(=O)N4CCCCC4)cc3)[nH]n2)c(O)c1
Output: > 100 µM

Input: Follow-up entry: Cc1cc(C)c2c(=O)n(CC(O)CN(Cc3ccccc3)CC(O)Cn3sc4nc(C)cc(C)c4c3=O)sc2n1 (stereo not given)
Output: 35.7 µM
